# assayed system: Itk (Homo sapiens)
# Sequence (Q08881 1-620): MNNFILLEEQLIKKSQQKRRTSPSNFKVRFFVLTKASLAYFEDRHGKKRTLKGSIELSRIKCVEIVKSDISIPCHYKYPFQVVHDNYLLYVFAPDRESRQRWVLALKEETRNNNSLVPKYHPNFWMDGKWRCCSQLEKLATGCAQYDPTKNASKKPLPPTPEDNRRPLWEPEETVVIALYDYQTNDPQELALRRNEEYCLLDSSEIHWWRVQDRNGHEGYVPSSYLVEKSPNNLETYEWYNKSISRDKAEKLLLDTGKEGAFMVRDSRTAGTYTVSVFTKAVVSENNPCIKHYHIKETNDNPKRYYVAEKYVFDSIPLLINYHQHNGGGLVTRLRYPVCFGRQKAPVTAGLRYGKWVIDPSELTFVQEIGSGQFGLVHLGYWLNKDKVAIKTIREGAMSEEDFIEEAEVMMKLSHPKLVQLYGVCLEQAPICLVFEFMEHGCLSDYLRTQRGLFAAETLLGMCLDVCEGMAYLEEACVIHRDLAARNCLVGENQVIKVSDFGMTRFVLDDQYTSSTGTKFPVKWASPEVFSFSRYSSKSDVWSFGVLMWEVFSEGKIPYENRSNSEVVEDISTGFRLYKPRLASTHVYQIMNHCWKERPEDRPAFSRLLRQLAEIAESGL
experimental readout: IC50 (nM)

compound	units of measure	IC50
Cc1c(C(=O)Nc2ccc(-c3nc(-c4ccnc(N5CCOCC5)c4)cnc3N)nc2)c(=O)n(-c2cccc(Cl)c2)n1C [Example 29(2)]	nM	1

1. COC1CCN(c2cccc(-c3cnc(N)c(-c4ccc(NC(=O)c5c(C)n(C)n(-c6cccc(C)c6)c5=O)cc4)n3)n2)CC1 [Example 17(11)]
2. Cc1c(C(=O)Nc2ccc(-c3nc(-c4cccc(N5CCOCC5)n4)cnc3N)cc2)c(=O)n(-c2ccccc2)n1C [Example 7(6)]
Quick one: lower IC50, 1 or 2 ? Write the label of whichever entry you select.
1
(1: 1 nM, 2: 2 nM)

====

# assayed system: Lck (Homo sapiens, UniProt P06239)
# Sequence (P06239 whole entry, species assumed): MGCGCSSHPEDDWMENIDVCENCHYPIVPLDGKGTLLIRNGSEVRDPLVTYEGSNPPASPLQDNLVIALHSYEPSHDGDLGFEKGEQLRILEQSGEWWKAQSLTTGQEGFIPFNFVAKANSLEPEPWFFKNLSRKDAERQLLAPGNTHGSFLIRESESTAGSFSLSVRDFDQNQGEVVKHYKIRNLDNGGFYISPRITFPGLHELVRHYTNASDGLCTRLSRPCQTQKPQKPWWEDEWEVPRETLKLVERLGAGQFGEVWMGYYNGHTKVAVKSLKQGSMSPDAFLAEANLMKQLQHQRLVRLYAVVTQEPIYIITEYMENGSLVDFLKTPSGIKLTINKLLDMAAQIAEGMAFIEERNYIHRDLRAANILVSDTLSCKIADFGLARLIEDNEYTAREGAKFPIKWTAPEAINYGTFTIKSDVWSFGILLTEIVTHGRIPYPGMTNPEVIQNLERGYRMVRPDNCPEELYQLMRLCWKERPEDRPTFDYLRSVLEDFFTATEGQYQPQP
# method: Inhibitory activity to Lck (similar procedure)
# Format: biochemical
# run conditions: selectivity ratio
experimental readout: Lck[IC50]/Itk[IC50]

1. Cc1c(C(=O)Nc2ccc(-c3nc(-c4cccc(N5CCOCC5)n4)cnc3N)cc2)c(=O)n(-c2ccccc2)n1C
2. COC1CN(c2cccc(-c3cnc(N)c(-c4ccc(NC(=O)c5c(C)n(C)n(-c6cccc(Cl)c6)c5=O)cc4)n3)n2)C1
Hi there! Just curious which has the higher Lck[IC50]/Itk[IC50] between 1 and 2 . Indicate which entry you chose by stating its label.
2

====

# assayed system: InsR (Homo sapiens)
# Sequence (P06213 28-1382, species assumed): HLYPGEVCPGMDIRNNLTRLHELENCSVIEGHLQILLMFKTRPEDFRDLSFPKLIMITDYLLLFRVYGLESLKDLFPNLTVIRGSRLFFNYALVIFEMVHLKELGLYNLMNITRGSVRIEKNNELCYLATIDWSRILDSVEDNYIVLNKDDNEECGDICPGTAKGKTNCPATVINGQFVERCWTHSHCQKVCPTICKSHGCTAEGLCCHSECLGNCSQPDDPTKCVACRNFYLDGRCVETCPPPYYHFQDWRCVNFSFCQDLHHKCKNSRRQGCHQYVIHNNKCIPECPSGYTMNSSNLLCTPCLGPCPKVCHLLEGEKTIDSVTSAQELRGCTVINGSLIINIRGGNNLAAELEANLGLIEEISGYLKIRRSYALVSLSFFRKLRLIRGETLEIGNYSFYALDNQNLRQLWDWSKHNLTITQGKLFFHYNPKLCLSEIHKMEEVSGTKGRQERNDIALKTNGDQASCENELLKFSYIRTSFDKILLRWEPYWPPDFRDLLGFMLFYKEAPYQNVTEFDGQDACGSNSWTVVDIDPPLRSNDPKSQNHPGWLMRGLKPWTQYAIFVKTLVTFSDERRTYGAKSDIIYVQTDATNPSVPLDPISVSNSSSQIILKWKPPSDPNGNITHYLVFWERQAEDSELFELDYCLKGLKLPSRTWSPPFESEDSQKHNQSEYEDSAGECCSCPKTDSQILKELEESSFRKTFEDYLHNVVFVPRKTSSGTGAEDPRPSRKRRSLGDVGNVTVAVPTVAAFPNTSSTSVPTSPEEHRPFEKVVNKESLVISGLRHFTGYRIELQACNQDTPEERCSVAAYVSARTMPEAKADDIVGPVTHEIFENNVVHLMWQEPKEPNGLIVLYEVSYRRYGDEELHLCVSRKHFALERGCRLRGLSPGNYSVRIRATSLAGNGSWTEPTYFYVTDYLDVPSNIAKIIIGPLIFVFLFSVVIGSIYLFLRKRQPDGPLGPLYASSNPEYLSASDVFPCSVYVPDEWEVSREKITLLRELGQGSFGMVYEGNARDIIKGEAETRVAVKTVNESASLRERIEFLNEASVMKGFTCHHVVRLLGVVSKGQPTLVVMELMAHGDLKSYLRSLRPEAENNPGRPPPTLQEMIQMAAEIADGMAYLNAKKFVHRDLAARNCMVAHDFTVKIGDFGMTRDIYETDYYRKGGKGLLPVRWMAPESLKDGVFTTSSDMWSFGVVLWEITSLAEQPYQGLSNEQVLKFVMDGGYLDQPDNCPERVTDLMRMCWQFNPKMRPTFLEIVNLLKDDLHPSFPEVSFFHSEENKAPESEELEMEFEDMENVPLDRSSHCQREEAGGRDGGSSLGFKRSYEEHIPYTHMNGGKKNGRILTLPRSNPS
# method: Inhibitory activity to InsR (similar procedure)
# Format: biochemical
# run conditions: selectivity ratio
experimental readout: InsR[IC50]/Itk[IC50]

A. Cc1c(C(=O)Nc2ccc(-c3nc(-c4cccc(N5CCOCC5)n4)cnc3N)cc2)c(=O)n(-c2ccccc2)n1C [Example 7(6)]
B. COC1CN(c2cccc(-c3cnc(N)c(-c4ccc(NC(=O)c5c(C)n(C)n(-c6cccc(Cl)c6)c5=O)cc4)n3)n2)C1 [Example 14(12)]
Hi there! Just curious which has the higher InsR[IC50]/Itk[IC50] between A and B . Answer = label.
B

====

# assayed system: Btk (Homo sapiens, UniProt Q06187)
# Sequence (Q06187 whole entry, species assumed): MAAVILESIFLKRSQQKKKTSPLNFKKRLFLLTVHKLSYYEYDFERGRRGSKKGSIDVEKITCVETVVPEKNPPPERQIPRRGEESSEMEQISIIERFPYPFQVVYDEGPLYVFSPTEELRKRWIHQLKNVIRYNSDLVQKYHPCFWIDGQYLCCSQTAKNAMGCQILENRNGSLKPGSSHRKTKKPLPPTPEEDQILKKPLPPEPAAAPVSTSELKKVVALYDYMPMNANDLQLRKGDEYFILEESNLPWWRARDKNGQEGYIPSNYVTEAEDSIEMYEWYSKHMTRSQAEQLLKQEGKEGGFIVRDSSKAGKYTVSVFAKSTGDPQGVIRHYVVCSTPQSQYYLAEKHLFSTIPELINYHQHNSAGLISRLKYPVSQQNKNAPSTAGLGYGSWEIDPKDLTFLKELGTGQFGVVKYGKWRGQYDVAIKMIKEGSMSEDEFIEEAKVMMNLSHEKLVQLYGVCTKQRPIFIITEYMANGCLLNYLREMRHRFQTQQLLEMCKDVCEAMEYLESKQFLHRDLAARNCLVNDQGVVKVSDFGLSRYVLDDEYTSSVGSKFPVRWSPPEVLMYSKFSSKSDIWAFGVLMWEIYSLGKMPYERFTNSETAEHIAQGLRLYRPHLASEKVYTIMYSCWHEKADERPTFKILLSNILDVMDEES
# method: Inhibitory activity to Btk (similar procedure)
# Format: biochemical
# run conditions: selectivity ratio
Reported Btk[IC50]/Itk[IC50] by item:

compound	assayed system	Btk[IC50]/Itk[IC50]
COC1CCN(c2cccc(-c3cnc(N)c(-c4ccc(NC(=O)c5c(C)n(C)n(-c6cccc(C)c6)c5=O)cc4)n3)n2)CC1 [Example 17(11)]	Btk (Homo sapiens, UniProt Q06187)	>1000
Cc1c(C(=O)Nc2ccc(-c3nc(-c4cccc(N5CCOCC5)n4)cnc3N)cc2)c(=O)n(-c2ccccc2)n1C [Example 7(6)]	Btk (Homo sapiens, UniProt Q06187)	>200
COC1CN(c2cccc(-c3cnc(N)c(-c4ccc(NC(=O)c5c(C)n(C)n(-c6cccc(Cl)c6)c5=O)cc4)n3)n2)C1 [Example 14(12)]	Btk (Homo sapiens, UniProt Q06187)	>500

Consider now this further compound.
Form: Entry = Cc1c(C(=O)Nc2ccc(-c3nc(-c4ccnc(N5CCOCC5)c4)cnc3N)nc2)c(=O)n(-c2cccc(Cl)c2)n1C [Example 29(2)] | System = Btk (Homo sapiens, UniProt Q06187) | Btk[IC50]/Itk[IC50] = ____
>1000

FYI, the data here is from patent US8962623B2.
